# Test system: human Factor 7 mRNA
# measurement-protocol: Dose-dependent antisense inhibition of human Factor 7 in HepB3 cells, lipofectin
# Type: cell-based
# setup-conditions: Table 7, 6.25 nM, approximately 16 hours
Strand notation (5' to 3'): a small letter for the sugar, then the base; units joined by * are phosphorothioate-linked, units joined directly phosphodiester-linked; [ ] holds rarer units or linkages, { } end groups; capitals alone tell only the bases. e = 2'-O-(2-methoxyethyl) (MOE); [5mC] = 5-methylcytosine; d = 2'-deoxy (DNA)
Give percent inhibition of Factor 7 for every item shown.
Quick reminder: number only, in %, skip the unit.

# query: percent inhibition of Factor 7 | item 416449 (antisense eT*eA*eG*eG*eT*dA*dT*dT*dT*dT*dT*d[5mC]*d[5mC]*dA*d[5mC]*eA*eT*eG*eG*eA) [compound 416449] | system: human Factor 7 mRNA
19

# query: percent inhibition of Factor 7 | item 407935 (antisense eA*eT*eG*e[5mC]*eA*dT*dG*dG*dT*dG*dA*dT*dG*d[5mC]*dT*eT*e[5mC]*eT*eG*eA) [compound 407935] | system: human Factor 7 mRNA
38

# query: percent inhibition of Factor 7 | item 416455 (antisense e[5mC]*eG*e[5mC]*e[5mC]*eG*dG*d[5mC]*dT*d[5mC]*dT*dG*d[5mC]*dT*d[5mC]*dA*eT*e[5mC]*e[5mC]*e[5mC]*e[5mC]) [compound 416455] | system: human Factor 7 mRNA
28

# query: percent inhibition of Factor 7 | item 416508 (antisense e[5mC]*eG*eA*eG*eT*dT*d[5mC]*dT*dG*d[5mC]*dA*dG*dG*dA*dG*e[5mC]*eG*eG*e[5mC]*e[5mC]) [compound 416508] | system: human Factor 7 mRNA
42

# query: percent inhibition of Factor 7 | item 407900 (antisense e[5mC]*e[5mC]*e[5mC]*e[5mC]*eA*d[5mC]*dA*dA*dT*dT*d[5mC]*dG*dG*d[5mC]*d[5mC]*eT*eT*eG*eG*eG) [compound 407900] | system: human Factor 7 mRNA
18

# query: percent inhibition of Factor 7 | item 416438 (antisense e[5mC]*eA*eG*eG*eA*dG*d[5mC]*d[5mC]*d[5mC]*d[5mC]*d[5mC]*dA*dT*dT*d[5mC]*eT*eG*eG*e[5mC]*eA) [compound 416438] | system: human Factor 7 mRNA
11

# query: percent inhibition of Factor 7 | item 416446 (antisense eG*eG*eT*e[5mC]*eA*d[5mC]*dT*dG*d[5mC]*dA*dG*dT*dA*d[5mC]*dT*eG*e[5mC]*eT*e[5mC]*eA) [compound 416446] | system: human Factor 7 mRNA
25

# query: percent inhibition of Factor 7 | item 416477 (antisense e[5mC]*eA*eG*e[5mC]*e[5mC]*dT*dG*dA*dG*dG*d[5mC]*d[5mC]*dA*dG*d[5mC]*eA*eG*eA*eT*e[5mC]) [compound 416477] | system: human Factor 7 mRNA
21

* * *

# Tested on: human Factor 7 mRNA
# measurement-protocol: Dose-dependent antisense inhibition of human Factor 7 in HepB3 cells, electroporation
# Assay type: cell-based
# setup-conditions: 25 μM, approx. 16 hours (Table 15, Example 7)
Strand notation (5' to 3'): a small letter for the sugar, then the base; units joined by * are phosphorothioate-linked, units joined directly phosphodiester-linked; [ ] holds rarer units or linkages, { } end groups; capitals alone tell only the bases. e = 2'-O-(2-methoxyethyl) (MOE); [5mC] = 5-methylcytosine; d = 2'-deoxy (DNA)
measured-quantity: percent inhibition of Factor 7 mRNA, relative to untreated control cells (%)
Quick reminder: number only, in %, skip the unit.

// lookup percent inhibition of Factor 7 mRNA, relative to untreated control cells for 422150 (antisense eG*e[5mC]*eA*dT*dG*dG*dT*dG*dA*dT*dG*d[5mC]*dT*dT*d[5mC]*dT*dG*eA*eA*eT) [compound 422150]
54

// lookup percent inhibition of Factor 7 mRNA, relative to untreated control cells for 422296 (antisense e[5mC]*e[5mC]*dG*dA*dG*dT*dT*d[5mC]*dT*dG*d[5mC]*dA*dG*dG*dA*eG*e[5mC]*eG*eG*e[5mC]) [compound 422296]
56

// lookup percent inhibition of Factor 7 mRNA, relative to untreated control cells for 422130 (antisense eG*e[5mC]*e[5mC]*eT*eG*dA*dG*dG*d[5mC]*d[5mC]*dA*dG*d[5mC]*dA*dG*eA*eT*e[5mC]*eA*e[5mC]) [compound 422130]
61

// lookup percent inhibition of Factor 7 mRNA, relative to untreated control cells for 422177 (antisense e[5mC]*e[5mC]*e[5mC]*dG*d[5mC]*d[5mC]*dG*dG*d[5mC]*dT*d[5mC]*dT*dG*d[5mC]*dT*d[5mC]*dA*eT*e[5mC]*e[5mC]) [compound 422177]
21

// lookup percent inhibition of Factor 7 mRNA, relative to untreated control cells for 422142 (antisense eG*eA*eG*eT*eT*d[5mC]*dT*dG*d[5mC]*dA*dG*dG*dA*dG*d[5mC]*eG*eG*e[5mC]*e[5mC]*eT) [compound 422142]
67

// lookup percent inhibition of Factor 7 mRNA, relative to untreated control cells for 407939 (antisense eT*eG*e[5mC]*eA*eG*d[5mC]*d[5mC]*d[5mC]*dG*dG*d[5mC]*dA*d[5mC]*d[5mC]*d[5mC]*eA*eG*e[5mC]*eG*eA) [compound 407939]
56

// lookup percent inhibition of Factor 7 mRNA, relative to untreated control cells for 422086 (antisense eT*eG*e[5mC]*eA*eT*dG*dG*dT*dG*dA*dT*dG*d[5mC]*dT*dT*e[5mC]*eT*eG*eA*eA) [compound 422086]
63

// lookup percent inhibition of Factor 7 mRNA, relative to untreated control cells for 422295 (antisense e[5mC]*eG*dA*dG*dT*dT*d[5mC]*dT*dG*d[5mC]*dA*dG*dG*dA*dG*e[5mC]*eG*eG*e[5mC]*e[5mC]) [compound 422295]
58

// lookup percent inhibition of Factor 7 mRNA, relative to untreated control cells for 422252 (antisense e[5mC]*eG*d[5mC]*d[5mC]*dG*dG*d[5mC]*dT*d[5mC]*dT*dG*d[5mC]*dT*d[5mC]*dA*eT*e[5mC]*e[5mC]*e[5mC]*e[5mC]) [compound 422252]
38

// lookup percent inhibition of Factor 7 mRNA, relative to untreated control cells for 422215 (antisense eG*eT*eT*d[5mC]*dT*dG*d[5mC]*dA*dG*dG*dA*dG*d[5mC]*dG*dG*d[5mC]*d[5mC]*eT*eA*eA) [compound 422215]
50

// lookup percent inhibition of Factor 7 mRNA, relative to untreated control cells for 422217 (antisense eG*eA*eG*dT*dT*d[5mC]*dT*dG*d[5mC]*dA*dG*dG*dA*dG*d[5mC]*dG*dG*e[5mC]*e[5mC]*eT) [compound 422217]
55

// lookup percent inhibition of Factor 7 mRNA, relative to untreated control cells for 422096 (antisense eA*eG*eA*e[5mC]*eA*dA*dT*dG*dG*dT*d[5mC]*dA*dG*dG*dG*e[5mC]*eT*eG*eG*eT) [compound 422096]
50

// lookup percent inhibition of Factor 7 mRNA, relative to untreated control cells for 422183 (antisense eG*e[5mC]*eG*d[5mC]*d[5mC]*dA*d[5mC]*d[5mC]*d[5mC]*dG*d[5mC]*d[5mC]*dG*dG*d[5mC]*dT*d[5mC]*eT*eG*e[5mC]) [compound 422183]
44

// lookup percent inhibition of Factor 7 mRNA, relative to untreated control cells for 422152 (antisense eA*eT*eG*d[5mC]*dA*dT*dG*dG*dT*dG*dA*dT*dG*d[5mC]*dT*dT*d[5mC]*eT*eG*eA) [compound 422152]
44

// lookup percent inhibition of Factor 7 mRNA, relative to untreated control cells for 422228 (antisense eT*eG*d[5mC]*dA*dT*dG*dG*dT*dG*dA*dT*dG*d[5mC]*dT*dT*e[5mC]*eT*eG*eA*eA) [compound 422228]
47

// lookup percent inhibition of Factor 7 mRNA, relative to untreated control cells for 422229 (antisense eA*eT*dG*d[5mC]*dA*dT*dG*dG*dT*dG*dA*dT*dG*d[5mC]*dT*eT*e[5mC]*eT*eG*eA) [compound 422229]
44

// lookup percent inhibition of Factor 7 mRNA, relative to untreated control cells for 422140 (antisense eG*eT*eT*e[5mC]*eT*dG*d[5mC]*dA*dG*dG*dA*dG*d[5mC]*dG*dG*e[5mC]*e[5mC]*eT*eA*eA) [compound 422140]
64

// lookup percent inhibition of Factor 7 mRNA, relative to untreated control cells for 422292 (antisense eG*eT*dT*d[5mC]*dT*dG*d[5mC]*dA*dG*dG*dA*dG*d[5mC]*dG*dG*e[5mC]*e[5mC]*eT*eA*eA) [compound 422292]
59

// lookup percent inhibition of Factor 7 mRNA, relative to untreated control cells for 407935 (antisense eA*eT*eG*e[5mC]*eA*dT*dG*dG*dT*dG*dA*dT*dG*d[5mC]*dT*eT*e[5mC]*eT*eG*eA) [compound 407935]
73

// lookup percent inhibition of Factor 7 mRNA, relative to untreated control cells for 422087 (antisense e[5mC]*eA*eT*eG*e[5mC]*dA*dT*dG*dG*dT*dG*dA*dT*dG*d[5mC]*eT*eT*e[5mC]*eT*eG) [compound 422087]
57
